The reader will find reported Max inhibition % values listed item by item below.
target entity: human Claudin18.2 (CLDN18.2) (human, UniProt P56856 1-261)
assay info: cell-based or functional assay

- binder: "chAb25 (antibody, V domains shown) VH: EAQLQQSGPELVKPGASVKIFCKASGYTFTDYYINWVKQSHGKSLEWIGDINPNNGGTTYNQKFKGKATLTVDKSSSTASMELRRLTSEDSSVYYCARRDAMDYWGQGTSVTVSS VL: DIVMTQSQKFMSTTVGDRVSITCTASQNVGPAVAWYQQKPGQSPKLLIYSASRRFTGVPDRFTGSGSGTVFTLTINNVQSEDLADYFCQQYISYPLTFGAGTKLELK"
  Max inhibition % / %: 92.9
- binder: "chAb06 (antibody, V domains shown) VH: EVQLVASGGGLVKPGGSLKLSCAASGITFRSYAMSWVRQTPEKRLEWVATITDGGSYIFYPDNVKGRFTISGDHAKNNLYLQMSHLKSEDTALYFCVRLYYGNSFAYWGQGTLVTVSA VL: DIVMTQSPSSLTVTAGEKVTLNCKSSQSLFNSGNQKNYLTWYQQKPGQPPKLLIYWASTRESGVPDRFTGSGSGTDFTLTFSSVQAEDLAVYYCQNAYIYPFTFGSGTKLEIK"
  Max inhibition % / %: 91.8
- binder: "chAb29 (antibody, V domains shown) VH: EVLLQQSGPELVKPGASVKIPCKASGYTLTDHSMDWVKQSHGKSLEWIGNILPNNGGNIYNQKFRGKATLTVDKSSSTAYMELRSLTSEDTAVYNCARGHYGNSFAYWGQGTLVIVS VL: DIVMTQSPSSLTVRAGEKVTIYCKSSQSLFNSGNQKNYLTWYQQKPGQPPKLLIYWASTRESGVPHRFTGSGSGTDFTLTISSMQADDLATYYCQNGYFFPYTFGGGTKLEIK"
  Max inhibition % / %: 93.5
- binder: "chAb15 (antibody, V domains shown) VH: EVMLVESGGDLVKPGGSLKLSCAASGFTFSTYTMSWVRQTPEKRLEWVATIVGGGGYTYYLDSVKGRFTISRDNAKNTLYLQMISLRSEDTALYYCARMGLTQRNALDYWGQGTSITVSS VL: DIVMTQSPSSLSVSEGEKVTLNCKSSQSLFNSGNQKNYLAWYQQKPGQPPKLLIYGASTRESGVPDRFTGSGFGTDFTLTISSVQAEDLAVYYCQNDHTYPLTFGAGAKLELK"
  Max inhibition % / %: 92.4
- binder: "chAb24 (antibody, V domains shown) VH: EVKLVESGGGLVKPGGSLKLSCAGSGFTFSSYTMSWVRQTPEKRLEWVATITIGVNIYYLDSVKGRFTISRDNAKNTLYLQMNSLRSEDTALYYCTRLGQTQRNAMDYWGQGTSVTVSS VL: DIVMTQSPTSLSVSAGEKVTMTCKSSQSLFNSGNQKNYLAWYQEKPGQPPKLLIYGASTRESGVPDRFTGSGSGTDFTLTISSVQAEDLAVYYCQNVHFYPFTFGAGTKLEL"
  Max inhibition % / %: 92.7
- binder: "chAb30 (antibody, V domains shown) VH: QVQLKESGPGLVAPSQSLSITCTVSGFSLTKFGVNWVRQPPGKGLEWLGAIWGDGSTNYHSALISRLSINKDNSKSQVFLKLSSLQNVDTATYYCAKSGYGNAMDYWGHGTSVTVSS VL: DIVMTQSPSSLTVTTGEKVTLNCKSSQSLLNSGNLKNYLTWYQQRPGQPPKLLIYWASTRESGVPYRFTGSGSGTDFTLTISNVQAEDLAIYYCQNDYFFPFTFGSGTKLEIK"
  Max inhibition % / %: 92.4
- binder: "chAb18 (antibody, V domains shown) VH: QVQLKESGPGLVAPSQSLSITCTVSGFSLTTYGINWVRQPPGKGLEWLGVIWGDGSTNYHSALISRLSISKDNSKSQVFLKLNSLQTDDTATYYCVKSSYYGNAMDYWGQGTSVTVSS VL: DIVMTQSPSSLTVTAGETVTMSCKSSQSLLNSGNQKNYLTWYQQKPGQPPKLLIYWASTRESGVPDRFTGSGSGTDFTLTISSVQAEDLAVYYCQNVYSYPFTFGSGTKLEI"
  Max inhibition % / %: 90.7
